target: UniProt:Q9NYK1; assay: TLR7 inhibition reporter assay (HEK-Blue cells, secreted embryonic alkaline phosphatase reporter); conditions: HEK-Blue cells overexpressing human TLR7, stimulated with gardiquimod 7.5 μM; read-out: TLR 7 IC50
Sequence (Q9NYK1 27-1049): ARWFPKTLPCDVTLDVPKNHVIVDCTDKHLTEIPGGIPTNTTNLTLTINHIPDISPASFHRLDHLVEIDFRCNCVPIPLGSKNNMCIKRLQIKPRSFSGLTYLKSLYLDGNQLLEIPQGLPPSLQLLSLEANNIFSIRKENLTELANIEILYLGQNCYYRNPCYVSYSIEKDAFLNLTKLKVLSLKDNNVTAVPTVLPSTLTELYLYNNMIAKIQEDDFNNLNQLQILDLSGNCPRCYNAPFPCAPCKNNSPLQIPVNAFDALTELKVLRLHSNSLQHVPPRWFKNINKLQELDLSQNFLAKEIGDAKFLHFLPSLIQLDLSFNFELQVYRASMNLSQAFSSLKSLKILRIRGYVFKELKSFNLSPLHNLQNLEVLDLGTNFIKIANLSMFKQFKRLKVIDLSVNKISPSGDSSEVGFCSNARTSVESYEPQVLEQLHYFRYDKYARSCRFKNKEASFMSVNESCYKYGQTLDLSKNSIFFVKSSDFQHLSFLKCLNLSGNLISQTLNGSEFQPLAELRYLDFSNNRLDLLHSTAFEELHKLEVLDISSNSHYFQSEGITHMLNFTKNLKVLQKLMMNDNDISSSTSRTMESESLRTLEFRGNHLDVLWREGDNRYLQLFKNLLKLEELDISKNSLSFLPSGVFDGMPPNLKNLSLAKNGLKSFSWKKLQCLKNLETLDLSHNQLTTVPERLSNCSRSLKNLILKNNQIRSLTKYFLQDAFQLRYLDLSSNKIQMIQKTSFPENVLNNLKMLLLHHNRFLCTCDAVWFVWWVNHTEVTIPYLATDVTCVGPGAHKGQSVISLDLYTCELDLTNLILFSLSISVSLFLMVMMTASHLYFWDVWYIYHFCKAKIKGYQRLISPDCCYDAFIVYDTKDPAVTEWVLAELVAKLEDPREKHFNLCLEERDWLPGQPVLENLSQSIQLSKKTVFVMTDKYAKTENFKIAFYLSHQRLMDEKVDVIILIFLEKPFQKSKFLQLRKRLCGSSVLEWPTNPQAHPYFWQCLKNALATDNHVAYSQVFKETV
IC50 values by entry

{"compound": "CS(=O)(=O)c1ccc(-c2nc3ccc(C4CCN(C5CCN(C6CCC6)CC5)CC4)c(F)c3[nH]2)cc1 [Example 180]", "IC50": "> 50 µM"}
{"compound": "CC(C)N1C2CCC1CC(N1CCC(c3cc4nc(-c5ccc(S(C)(=O)=O)cc5)n(C)c4cc3F)CC1)C2 (single isomer, unassigned) [Example 101]", "IC50": "19.5 µM"}
{"compound": "Cc1cc(C2CCN(C3CCN(C(C)C)CC3)CC2)cc2c1nc(-c1ccc(S(C)(=O)=O)cc1)n2C [Example 22]", "IC50": "24 µM"}
{"compound": "CS(=O)(=O)c1ccc(-c2nc3c(F)cc(C4CCN(C5CC6CCC(C5)N6C5CCOCC5)CC4)cc3n2C2CC2)cc1 (centres unmarked) [Example 328]", "IC50": "2.3 µM"}
{"compound": "COCCN1C2CCC1CC(N1CCC(c3cc4nc(-c5ccc(S(C)(=O)=O)cc5)n(C)c4cc3F)CC1)C2 (centres unmarked) [Example 257]", "IC50": "30.7 µM"}
{"compound": "Cc1cc(-c2ccc(N3CCN(C(C)C)CC3)cc2)cc2c1nc(-c1ccc(S(C)(=O)=O)cc1)n2C [Example 86]", "IC50": "5.2 µM"}
{"compound": "CC(C)N1CCCC(N2CCC(c3cc(F)c4nc(-c5ccc(S(C)(=O)=O)cc5)n(C)c4c3)CC2)CC1 (single isomer, unassigned) [Example 294]", "IC50": "2.3 µM"}
{"compound": "COc1ccc(-c2nc3cc(C4CCN(C5CCN(C6CC6)CC5)CC4)ccc3n2CC(F)F)cc1OC [Example 39]", "IC50": "6.4 µM"}
{"compound": "Cc1cc(-c2cc(F)cc(CN3CCC(N4CCC4)CC3)c2)cc2c1nc(-c1ccc(S(C)(=O)=O)cc1)n2C [Example 406]", "IC50": "0.6 µM"}
{"compound": "COCCN1C2CCC1CC(N1CCC(c3cc(F)c4nc(-c5ccc(S(C)(=O)=O)cc5)n(C)c4c3)CC1)C2 (single isomer, unassigned) [Example 290]", "IC50": "22.2 µM"}
{"compound": "Cc1cc(-c2ccc(CN3CC4(C3)CN(C(C)C)C4)c(F)c2)cc2c1nc(-c1ccc(S(C)(=O)=O)cc1)n2C [Example 404]", "IC50": "0.1 µM"}
{"compound": "CC(C)N1C2CCC1CC(N1CCC(c3ccc4c(nc(-c5ccc(S(C)(=O)=O)cc5)n4C)c3F)CC1)C2 (single isomer, unassigned) [Example 90]", "IC50": "> 50 µM"}
{"compound": "COCCN1CCC(N2CCC(c3ccc4c(nc(-c5ccc(S(C)(=O)=O)cc5)n4C)c3F)CC2)CC1 [Example 188]", "IC50": "> 50 µM"}
{"compound": "Cc1cc(-c2ccc(N3CCN(C4CCC4)CC3)cc2)cc2c1nc(-c1ccc(S(C)(=O)=O)cc1)n2C [Example 174]", "IC50": "> 50 µM"}

----------
Target: human TLR9 (Homo sapiens, UniProt Q9NR96)
Construct: host or cells: HEK-Blue cells (HEK293-derived reporter line)
Sequence (Q9NR96 26-1032): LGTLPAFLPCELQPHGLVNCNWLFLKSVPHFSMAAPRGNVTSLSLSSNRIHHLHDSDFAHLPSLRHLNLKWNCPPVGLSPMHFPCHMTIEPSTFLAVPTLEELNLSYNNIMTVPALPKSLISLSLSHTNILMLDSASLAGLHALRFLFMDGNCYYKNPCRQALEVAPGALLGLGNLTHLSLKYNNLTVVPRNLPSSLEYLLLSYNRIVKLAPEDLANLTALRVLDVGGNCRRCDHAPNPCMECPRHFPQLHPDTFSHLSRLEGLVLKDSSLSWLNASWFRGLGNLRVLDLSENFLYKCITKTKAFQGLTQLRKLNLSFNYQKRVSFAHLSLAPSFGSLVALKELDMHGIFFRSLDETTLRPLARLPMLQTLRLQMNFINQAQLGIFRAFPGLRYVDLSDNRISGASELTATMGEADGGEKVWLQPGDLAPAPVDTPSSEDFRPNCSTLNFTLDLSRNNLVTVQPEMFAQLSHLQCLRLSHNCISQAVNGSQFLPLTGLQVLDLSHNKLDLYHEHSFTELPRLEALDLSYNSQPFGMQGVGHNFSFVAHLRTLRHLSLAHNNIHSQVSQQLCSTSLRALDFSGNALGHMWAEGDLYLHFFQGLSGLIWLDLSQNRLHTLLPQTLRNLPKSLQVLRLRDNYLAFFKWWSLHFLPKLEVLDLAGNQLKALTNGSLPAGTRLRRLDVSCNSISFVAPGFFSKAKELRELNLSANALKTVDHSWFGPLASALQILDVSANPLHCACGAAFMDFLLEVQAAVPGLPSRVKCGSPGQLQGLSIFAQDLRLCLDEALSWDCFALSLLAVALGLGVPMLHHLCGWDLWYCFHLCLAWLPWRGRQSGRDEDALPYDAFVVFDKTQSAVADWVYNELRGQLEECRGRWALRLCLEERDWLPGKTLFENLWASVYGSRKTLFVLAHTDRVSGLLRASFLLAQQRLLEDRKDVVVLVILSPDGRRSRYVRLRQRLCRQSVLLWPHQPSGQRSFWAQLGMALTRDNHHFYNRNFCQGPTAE
Experiment: TLR9 inhibition reporter assay (HEK-Blue cells, secreted embryonic alkaline phosphatase reporter)
Format: cell-based
Conditions: HEK-Blue cells overexpressing human TLR9, stimulated with ODN2006 5 nM; read-out: TLR 9 IC50
observable: IC50

{"molecule": "COCCN1C2CCC1CC(N1CCC(c3cc(F)c4nc(-c5ccc(S(C)(=O)=O)cc5)n(C)c4c3)CC1)C2 (single isomer, unassigned) [Example 290]", "measurement target": "human TLR9 (Homo sapiens, UniProt Q9NR96)", "data value": "144 nM"}
{"molecule": "Cn1c(-c2ccc(S(C)(=O)=O)cc2)nc2c(F)cc(C3CCN(C4CCCN(C5COC5)CC4)CC3)cc21 (single isomer, unassigned)", "measurement target": "human TLR9 (Homo sapiens, UniProt Q9NR96)", "data value": "25.8 nM"}
{"molecule": "Cc1cc(C2CCN(C3CC4CCC(C3)N4C3COC3)CC2)cc2c1nc(-c1ccc(S(C)(=O)=O)cc1)n2C (single isomer, unassigned) [Example 159]", "measurement target": "human TLR9 (Homo sapiens, UniProt Q9NR96)", "data value": "934 nM"}
{"molecule": "COc1cc(-c2nc3c(C)cc(C4CCN(C5CC6CCC(C5)N6C(C)C)CC4)cc3n2C)cn2ncnc12 (stereo not shown)", "measurement target": "human TLR9 (Homo sapiens, UniProt Q9NR96)", "data value": "32 nM"}
{"molecule": "Cc1cc(-c2cc(F)cc(CN3CCC(N4CCCC4)CC3)c2)cc2c1nc(-c1ccc(S(C)(=O)=O)cc1)n2C", "measurement target": "human TLR9 (Homo sapiens, UniProt Q9NR96)", "data value": "21 nM"}
{"molecule": "Cn1c(-c2ccc(S(C)(=O)=O)cc2)nc2cc(F)c(C3CCN(C4CC5CCC(C4)N5C4COC4)CC3)cc21 (single isomer, unassigned) [Example 235]", "measurement target": "human TLR9 (Homo sapiens, UniProt Q9NR96)", "data value": "1730 nM"}
{"molecule": "COc1ccc(-c2nc3c(C)cc(C4CCN(C5CC6CCC(C5)N6C(C)C)CC4)cc3n2C)cc1OC (stereo not shown) [Example 145]", "measurement target": "human TLR9 (Homo sapiens, UniProt Q9NR96)", "data value": "24 nM"}
{"molecule": "COc1cc(-c2nc3c(C)cc(C4CCN(C5CC6CCC(C5)N6C5CCC5)CC4)cc3[nH]2)cn2ncnc12 (stereo not shown)", "measurement target": "human TLR9 (Homo sapiens, UniProt Q9NR96)", "data value": "20 nM"}
{"molecule": "Cc1cc(-c2ccc(CN3C[C@@H]4CN(C(C)C)C[C@@H]4C3)cc2)cc2c1nc(-c1ccc(S(C)(=O)=O)cc1)n2C", "measurement target": "human TLR9 (Homo sapiens, UniProt Q9NR96)", "data value": "86 nM"}
{"molecule": "Cn1c(-c2ccc(S(C)(=O)=O)cc2)nc2ccc(C3CCN(C4CCCN(C5CCC5)CC4)CC3)c(F)c21 (stereo not shown) [Example 313]", "measurement target": "human TLR9 (Homo sapiens, UniProt Q9NR96)", "data value": "69 nM"}
{"molecule": "Cn1c(-c2ccc(S(C)(=O)=O)cc2)nc2cc(C3CCN(C4CCN(C5CCOCC5)CC4)CC3)c(F)cc21", "measurement target": "human TLR9 (Homo sapiens, UniProt Q9NR96)", "data value": "1060 nM"}
{"molecule": "CC(C)N1CC2(CN(Cc3ccc(-c4cc(F)c5nc(-c6ccc(S(C)(=O)=O)cc6)n(C6CC6)c5c4)cc3)C2)C1", "measurement target": "human TLR9 (Homo sapiens, UniProt Q9NR96)", "data value": "44 nM"}
{"molecule": "Cn1c(-c2ccc(S(C)(=O)=O)cc2)nc2cc(F)c(C3CCN(C4CCN(CC5CC5)CC4)CC3)cc21", "measurement target": "human TLR9 (Homo sapiens, UniProt Q9NR96)", "data value": "192 nM"}
